Assay: Pharmacokinetics: quantitative determination in mice plasma (LCMS)
Assay type: in vivo, C57BL/6 Mice
Conditions: C57BL/6, mouse, 10 mg/kg PO single dose, 10% NMP vehicle, read-out: AUC0-4 h
measured.metric: AUC(0-t) (ng·h/mL)

{"columns": ["compound", "quantitative.readout"],
 "data": [
  ["Oc1cc(O)c2c(c1)OC(c1ccc(O)c(F)c1)C(O)C2 (single isomer, unassigned) [Compound 76b]", 45.7]
]}

[I] Oc1cc(O)c2c(c1)OC(c1ccccc1)C(O)C2 (single isomer, unassigned) [Compound 78a, 2-phenylchromane-3,5,7-triol]
[II] COc1cc(C2Oc3ccccc3CC2O)ccc1F (single isomer, unassigned) [Compound 75b, 2-(4-fluoro-3-methoxyphenyl)chroman-3-ol]
Quick one: lower AUC(0-t), I or II ? Give the label of your selection. I

----------
Test: Pharmacokinetics: quantitative determination in mice plasma (LCMS)
Assay type: in vivo, C57BL/6 Mice
Settings: C57BL/6, mouse, 10 mg/kg PO single dose, 10% NMP vehicle
measured.metric: Cmax (ng/mL)

{"columns": ["compound", "value.unit", "quantitative.readout"],
 "data": [
  ["Oc1cc(O)c2c(c1)OC(c1ccc(O)c(F)c1)C(O)C2 (single isomer, unassigned) [Compound 76b]", "ng/mL", 89.3]
]}

[P] Oc1cc(O)c2c(c1)OC(c1ccccc1)C(O)C2 (single isomer, unassigned) [Compound 78a, 2-phenylchromane-3,5,7-triol]
[Q] COc1cc(C2Oc3ccccc3CC2O)ccc1F (single isomer, unassigned) [Compound 75b, 2-(4-fluoro-3-methoxyphenyl)chroman-3-ol]
Quick one: lower Cmax, P or Q ? Give the label of your selection. P
(P: 49.8 ng/mL, Q: 138 ng/mL)

----------
Assay: Pharmacokinetics: quantitative determination in mice brains (LCMS)
Assay type: in vivo, C57BL/6 Mice
Settings: C57BL/6, mouse; mice brain, 10 mg/kg PO single dose, 10% NMP vehicle
measured.metric: Tmax (h)

{"columns": ["compound", "measured.metric", "value.unit", "quantitative.readout"],
 "data": [
  ["Oc1cc(O)c2c(c1)OC(c1ccccc1)C(O)C2 (single isomer, unassigned) [Compound 78a, 2-phenylchromane-3,5,7-triol]", "Tmax", "h", 1],
  ["Oc1cc(O)c2c(c1)OC(c1ccc(O)c(F)c1)C(O)C2 (single isomer, unassigned) [Compound 76b]", "Tmax", "h", 1],
  ["COc1cc(C2Oc3ccccc3CC2O)ccc1F (single isomer, unassigned) [Compound 75b, 2-(4-fluoro-3-methoxyphenyl)chroman-3-ol]", "Tmax", "h", 1]
]}

----------
Experiment: Pharmacokinetics: quantitative determination in mice plasma (LCMS)
Format: in vivo, C57BL/6 Mice
Details: C57BL/6, mouse, 10 mg/kg PO single dose, 10% NMP vehicle
measured.metric: Tmax (min)

{"columns": ["compound", "measured.metric", "quantitative.readout"],
 "data": [
  ["Oc1cc(O)c2c(c1)OC(c1ccccc1)C(O)C2 (single isomer, unassigned) [Compound 78a, 2-phenylchromane-3,5,7-triol]", "Tmax", 15]
]}

[a] Oc1cc(O)c2c(c1)OC(c1ccc(O)c(F)c1)C(O)C2 (single isomer, unassigned) [Compound 76b]
[b] COc1cc(C2Oc3ccccc3CC2O)ccc1F (single isomer, unassigned) [Compound 75b, 2-(4-fluoro-3-methoxyphenyl)chroman-3-ol]
So which one has the bigger Tmax here, a or b ? Give the label of your selection. b
